B1: CPEB3 Ribozyme (parent)
chain: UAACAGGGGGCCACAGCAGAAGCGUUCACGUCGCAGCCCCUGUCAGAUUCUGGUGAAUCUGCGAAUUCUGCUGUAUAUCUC

Variants of: B1
Test: self-cleavage, relative activity (ratio to wild type); higher = more cleavage; in vitro, sequencing
Classification field: true (1) = self-cleavage at or over 0.4; false (0) = self-cleavage under 0.4.

**Q:** Decide: self-cleavage of U60G U78A >= 0.4?
**A:** false (0)

**Q:** Decide: self-cleavage of A5U A45G >= 0.4?
**A:** true (1)

**Q:** Decide: self-cleavage of U31A A35U >= 0.4?
**A:** false (0)

**Q:** Decide: self-cleavage of C4U U67C >= 0.4?
**A:** true (1)

**Q:** Decide: self-cleavage of U25G U69C >= 0.4?
**A:** false (0)

**Q:** Decide: self-cleavage of U67A U78C >= 0.4?
**A:** true (1)

**Q:** Decide: self-cleavage of U43C U76A >= 0.4?
**A:** true (1)

**Q:** Decide: self-cleavage of G10A G61C >= 0.4?
**A:** false (0)

**Q:** Decide: self-cleavage of G53C A64U >= 0.4?
**A:** true (1)

**Q:** Decide: self-cleavage of C68U A75G >= 0.4?
**A:** true (1)

**Q:** Decide: self-cleavage of G8A U58C >= 0.4?
**A:** false (0)

**Q:** Decide: self-cleavage of U58A A65U >= 0.4?
**A:** false (0)

**Q:** Decide: self-cleavage of U78C C79U >= 0.4?
**A:** true (1)

**Q:** Decide: self-cleavage of U1C A28U >= 0.4?
**A:** true (1)

These data points were gathered from the RNAGym collection of RNA variant scans (doi:10.1093/nar/gkz1192).
